These entries and their values trace back to ChEMBL document CHEMBL1125785.

System: P388
Test: Antitumor activity in mice implanted with lymphocytic P388 cells after intraperitoneal administration.
Type: functional, Mus musculus
Dose class ranges: Low (below 6 mg/kg), Mid (6 mg/kg to below 50 mg/kg), High (50 mg/kg or more)

Look over these answered cases.
[
  {
    "molecule": "CCOC(=O)Nc1cc2c(c(N)n1)N=C(COc1ccccc1)C(C)N2 (configuration not stated)",
    "class-label": "High"
  },
  {
    "molecule": "CCOC(=O)Nc1cc2c(c(N)n1)N=C(C13C[C@H]4C[C@@H](C1)C[C@@H](C3)C4)CN2",
    "class-label": "High"
  },
  {
    "molecule": "CCOC(=O)Nc1cc2c(c(N)n1)N=C(CN(C)c1ccc(OC)cc1)C(C)N2.O (configuration not stated)",
    "class-label": "Mid"
  },
  {
    "molecule": "CCOC(=O)Nc1cc2c(c(N)n1)N=C(c1cccc3ccccc13)CN2",
    "class-label": "Mid"
  }
]

Ask | Which Dose band matches CCOC(=O)Nc1cc2c(c(N)n1)N=C(c1ccccc1)C(CC)N2 (configuration not stated) ?
Reply | Low

Ask | Which Dose band matches CCOC(=O)Nc1cc2c(c(N)n1)N=C(c1ccccc1)C(C)N2 (configuration not stated) ?
Reply | Low

Ask | Which Dose band matches CCOC(=O)Nc1cc2c(c(N)n1)N=C(c1cccc(N)c1)C(C)N2 (configuration not stated) ?
Reply | Low

Ask | Which Dose band matches CCOC(=O)Nc1cc2c(c(N)n1)N=C(c1cc(OC)cc(OC)c1)C(C)N2 (configuration not stated) ?
Reply | Mid

Ask | Which Dose band matches CCOC(=O)Nc1cc2c(c(N)n1)N=C(c1ccc(OC)c(OC)c1OC)CN2 ?
Reply | Mid

* * *

Test system: P388
Assay: Antitumor activity in mice implanted with lymphocytic P388 cells after intraperitoneal administration.
Format: functional, Mus musculus
hey, just use yes (1) if measured Dose is less than 6 mg/kg, otherwise no (0)

[
  {
    "compound": "CCOC(=O)Nc1cc2c(c(N)n1)N=C(Cc1ccccc1)C(C)N2 (stereo not drawn)",
    "class-label": "no (0)"
  },
  {
    "compound": "CCCCC1=Nc2c(cc(NC(=O)OCC)nc2N)NC1C (stereo not drawn)",
    "class-label": "no (0)"
  },
  {
    "compound": "CCOC(=O)Nc1cc2c(c(N)n1)N=C(c1ccc3c(c1)COO3)C(C)N2 (stereo not drawn)",
    "class-label": "yes (1)"
  },
  {
    "compound": "CCOC(=O)Nc1cc2c(c(N)n1)N=C(c1ccccc1)CN2",
    "class-label": "yes (1)"
  },
  {
    "compound": "CCCCC1Nc2cc(NC(=O)OCC)nc(N)c2N=C1C (stereo not drawn)",
    "class-label": "no (0)"
  }
]

Turning now to a further compound:
Ask | For this compound, is Dose lower than 6 mg/kg? CCOC(=O)Nc1cc2c(c(N)n1)N=C1Cc3ccccc3CC1N2 (stereo not drawn)
Reply | no (0)
